- Test system: human Factor XI mRNA
- experiment notes: Dose-dependent inhibition and IC50 in HepG2 cells, electroporation (Example 15)
- Assay type: cell-based
- experimental context: electroporation, 123.47 nM
- Description: Cells were plated at a density of 20,000 cells per well and transfected using electroporation with 123.46 nM, 370.37 nM, 1,111.11 nM, 3,333.33 nM and 10,000 nM concentrations of antisense oligonucleotide, as specified in Table 52. After a treatment period of approximately 16 hours, RNA was isolated from the cells and Factor XI mRNA levels were measured by quantitative real-time PCR. […] Factor XI mRNA levels were adjusted according to total RNA content, as measured by RIBOGREEN. […]
In the oligonucleotide strings, read from the 5' end, every base follows the letter of its sugar. An asterisk marks phosphorothioate; unmarked linkages are phosphodiester. Other units and linkages are bracketed, terminal groups are in braces. A string of capitals states the bases alone. e = 2'-O-(2-methoxyethyl) (MOE); [5mC] = 5-methylcytosine; d = 2'-deoxy (DNA)
So I've got a bunch of substances here, and I need their percent inhibition of Factor XI mRNA values.
Numbers only, in %.

Quick one: give me percent inhibition of Factor XI mRNA for each item below, same order please.
1. 416851 (antisense GTGCACAGTTTCTGGCAGGC; 5-10-5 gapmer, wing sugar chemistry not given here, further chemistry not given here) [compound 416851]
2. 445498 (antisense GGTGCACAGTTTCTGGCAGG; 6-8-6 gapmer chemistry, chemistry not fully specified) [compound 445498]
3. 445531 (antisense eG*eG*e[5mC]*eA*eT*dT*dG*dG*dT*dG*d[5mC]*dA*d[5mC]*eA*eG*eT*eT*eT) [compound 445531]
4. 416850 (antisense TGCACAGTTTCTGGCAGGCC; 5-10-5 gapmer, wing sugar chemistry not given here, further chemistry not given here) [compound 416850]
5. 445522 (antisense eG*e[5mC]*eA*e[5mC]*eA*dG*dT*dT*dT*d[5mC]*dT*dG*dG*e[5mC]*eA*eG*eG*e[5mC]) [compound 445522]
6. 416856 (antisense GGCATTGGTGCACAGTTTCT; 5-10-5 gapmer, wing sugar chemistry not given here, further chemistry not given here) [compound 416856]
7. 445505 (antisense e[5mC]*eG*eG*e[5mC]*eA*eT*dT*dG*dG*dT*dG*d[5mC]*dA*d[5mC]*eA*eG*eT*eT*eT*e[5mC]) [compound 445505]
8. 416861 (antisense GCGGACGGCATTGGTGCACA; 5-10-5 gapmer, wing sugar chemistry not given here, further chemistry not given here) [compound 416861]

Result:
1. 13
2. 3
3. 8
4. 0
5. 0
6. 12
7. 12
8. 0

Quick one: give me percent inhibition of Factor XI mRNA for each item below, same order please.
1. 445503 (antisense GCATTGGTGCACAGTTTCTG; 6-8-6 gapmer chemical modifications, chemistry not fully specified) [compound 445503]
2. 416860 (antisense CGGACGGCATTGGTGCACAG; 5-10-5 gapmer, wing sugar chemistry not given here, further chemistry not given here) [compound 416860]

Result:
0
0

---

- experiment notes: Cynomolgus monkeys: body and organ weights (Example 29)
- Assay type: in vivo
- experimental context: escalating doses 5, 10, 25 mg/kg s.c., day 22
In the oligonucleotide strings, read from the 5' end, every base follows the letter of its sugar. An asterisk marks phosphorothioate; unmarked linkages are phosphodiester. Other units and linkages are bracketed, terminal groups are in braces. A string of capitals states the bases alone. e = 2'-O-(2-methoxyethyl) (MOE); [5mC] = 5-methylcytosine; d = 2'-deoxy (DNA)
quantity: Body weight (g)
Answers are plain numbers, in g.

Answered cases to consult:
[
  {
    "substance": "ISIS 416850: gapmer of Table 8 (antisense eT*eG*e[5mC]*eA*e[5mC]*dA*dG*dT*dT*dT*d[5mC]*dT*dG*dG*d[5mC]*eA*eG*eG*e[5mC]*e[5mC])",
    "meas value": 2514
  },
  {
    "substance": "ISIS 416864: gapmer of Table 8 (antisense eG*eG*e[5mC]*eA*eG*d[5mC]*dG*dG*dA*d[5mC]*dG*dG*d[5mC]*dA*dT*eT*eG*eG*eT*eG)",
    "meas value": 2857
  }
]

Quick one: give me Body weight for each item below, same order please.
1. ISIS 416838: gapmer of Table 6 (antisense eG*e[5mC]*eA*eA*e[5mC]*d[5mC]*dG*dG*dG*dA*dT*dG*dA*dT*dG*eA*eG*eT*eG*e[5mC])
2. ISIS 417002: gapmer of Table 8 (antisense eG*eG*dT*dG*d[5mC]*dA*d[5mC]*dA*dG*dT*dT*dT*d[5mC]*dT*dG*eG*e[5mC]*eA*eG*eG)

Result:
[2702, 2617]

Q: Reported Body weight for ISIS 416858: gapmer of Table 8 (antisense eA*e[5mC]*eG*eG*e[5mC]*dA*dT*dT*dG*dG*dT*dG*d[5mC]*dA*d[5mC]*eA*eG*eT*eT*eT) : what is it?
Result: 2800

---

- experiment notes: Tolerability in CD1 mice: liver function (Example 21)
- Type: in vivo
- experimental context: plasma, 50 mg/kg s.c. twice per week for 6 weeks
# if value of ALT reaches 60 IU/L, tag Fulfilled; if it stays below, tag Not fulfilled

[
  {
    "sequence chain": "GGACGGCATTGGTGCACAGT (antisense; all C 5-methyl, all phosphorothioate, sugars by position not given here; MOE gapmer, 5-10-5) [ISIS 413482, 5-10-5 MOE gapmer]",
    "class name": "Not fulfilled"
  },
  {
    "sequence chain": "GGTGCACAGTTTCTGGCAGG (all C 5-methyl, all phosphorothioate, sugars by position not given here; MOE gapmer) [ISIS 413481, 5-10-5 MOE gapmer]",
    "class name": "Fulfilled"
  },
  {
    "sequence chain": "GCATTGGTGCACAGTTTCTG (antisense; all C 5-methyl, all phosphorothioate, sugars by position not given here; MOE gapmer, 5-10-5) [ISIS 412224, 5-10-5 MOE gapmer]",
    "class name": "Fulfilled"
  }
]

From here, focus on the item given below.
Q: Would you say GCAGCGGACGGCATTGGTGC (antisense; all C 5-methyl, all phosphorothioate, sugars by position not given here; MOE gapmer, 5-10-5) [ISIS 412225, 5-10-5 MOE gapmer] shows ALT at minimum 60 IU/L?
Result: Not fulfilled

---

So I've got a bunch of substances here, and I need their percent inhibition of human Factor XI mRNA values.
- System: human Factor XI mRNA
- experiment notes: Dose-dependent inhibition in HepB3 cells, electroporation (Example 7)
- Format: cell-based
- experimental context: 41.15 nM, approx. 16 h
- Procedure: The gapmers were also transfected via electroporation and their dose dependent inhibition of human Factor XI mRNA was measured. […] After a treatment period of approximately 16 hours, RNA was isolated from the cells and human Factor XI mRNA levels were measured by quantitative real-time PCR. […] Factor XI mRNA levels were adjusted according to total RNA content, as measured by RIBOGREEN®. […]
Answers are plain numbers, in %.

Answered cases to consult:
[
  {
    "substance": "416825 (antisense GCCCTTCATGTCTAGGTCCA; 5-10-5 gapmer, wing sugar chemistry not given here, further chemistry not given here) [compound 416825]",
    "meas value": 32
  },
  {
    "substance": "416838 (antisense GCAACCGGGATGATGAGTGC; 5-10-5 gapmer, wing sugar chemistry not given here, further chemistry not given here) [compound 416838]",
    "meas value": 12
  },
  {
    "substance": "416858 (antisense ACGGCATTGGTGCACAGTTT; 5-10-5 gapmer, wing sugar chemistry not given here, further chemistry not given here) [compound 416858]",
    "meas value": 23
  }
]

Quick one: give me percent inhibition of human Factor XI mRNA for each item below, same order please.
1. 416892 (antisense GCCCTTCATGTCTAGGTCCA; 3-14-3 chimeric gapmer, wing sugar chemistry not given here, further chemistry not given here) [compound 416892]
2. 416864 (antisense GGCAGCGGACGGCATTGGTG; 5-10-5 gapmer, wing sugar chemistry not given here, further chemistry not given here) [compound 416864]

Result:
[9, 4]

Q: Reported percent inhibition of human Factor XI mRNA for 416925 (antisense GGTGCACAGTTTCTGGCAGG; 3-14-3 chimeric gapmer, wing sugar chemistry not given here, further chemistry not given here) [compound 416925] : what is it?
Result: 27

---

- experiment notes: Cynomolgus monkeys: body and organ weights (Example 29)
- Type: in vivo
- experimental context: escalating doses 5, 10, 25 mg/kg s.c., day 8
In the oligonucleotide strings, read from the 5' end, every base follows the letter of its sugar. An asterisk marks phosphorothioate; unmarked linkages are phosphodiester. Other units and linkages are bracketed, terminal groups are in braces. A string of capitals states the bases alone. e = 2'-O-(2-methoxyethyl) (MOE); [5mC] = 5-methylcytosine; d = 2'-deoxy (DNA)
quantity: Body weight (g)
Numbers only, in g.

[
  {
    "substance": "ISIS 416838: gapmer of Table 6 (antisense eG*e[5mC]*eA*eA*e[5mC]*d[5mC]*dG*dG*dG*dA*dT*dG*dA*dT*dG*eA*eG*eT*eG*e[5mC])",
    "Body weight / g": 2592
  }
]

Quick one: give me Body weight for each item below, same order please.
1. ISIS 416858: gapmer of Table 8 (antisense eA*e[5mC]*eG*eG*e[5mC]*dA*dT*dT*dG*dG*dT*dG*d[5mC]*dA*d[5mC]*eA*eG*eT*eT*eT)
2. ISIS 416850: gapmer of Table 8 (antisense eT*eG*e[5mC]*eA*e[5mC]*dA*dG*dT*dT*dT*d[5mC]*dT*dG*dG*d[5mC]*eA*eG*eG*e[5mC]*e[5mC])
3. ISIS 416864: gapmer of Table 8 (antisense eG*eG*e[5mC]*eA*eG*d[5mC]*dG*dG*dA*d[5mC]*dG*dG*d[5mC]*dA*dT*eT*eG*eG*eT*eG)

Result:
[2740, 2430, 2784]

Q: Reported Body weight for ISIS 417002: gapmer of Table 8 (antisense eG*eG*dT*dG*d[5mC]*dA*d[5mC]*dA*dG*dT*dT*dT*d[5mC]*dT*dG*eG*e[5mC]*eA*eG*eG) : what is it?
Result: 2523
